- Test system: COLO 205
- test.summary: Cytotoxicity against human COLO205 cells assessed as effect on cell growth at 10 uM incubated for 48 hrs by sulforhodamine B assay
- Format: cell-based
- recorded.conditions: colo 205, 48 h
observed.property: Activity

- O=C(NCc1ccc(Cl)cc1Cl)[C@@H]1CCC(=O)N1c1ccccc1: Non-Toxic
- CN1C(=O)C(C)(C)C[C@H]1C(=O)NCc1cccc(C(F)(F)F)c1Cl: Non-Toxic
- CN1CCN(/C=C2\C[C@@H](C(=O)NCc3ccc(Cl)cc3Cl)N(c3cccs3)C2=O)CC1: Non-Toxic

###

- test.summary: Metabolic stability in human hepatocytes
- Assay type: ADME, cell-based, Hepatocyte
observed.property: Stability

Solved entries (count: 5):
- O=C(NCc1ccc(Cl)cc1Cl)[C@@H]1CCC(=O)N1c1nccs1: Unstable
- O=C(NCc1ccc(Cl)cc1Cl)[C@@H]1CCC(=O)N1c1ccsc1: Unstable
- O=C(NCc1cccc(C(F)(F)F)c1Cl)[C@@H]1CCC(=O)N1c1cccs1: Unstable
- O=C(NCc1ccc(Cl)cc1Cl)[C@@H]1CCC(=O)N1c1cccs1: Unstable
- O=C(NCc1ccc(Cl)cc1Cl)[C@@H]1CCC(=O)N1c1ccoc1: Unstable

Q: Please give the measured Stability for this compound: "O=C(NCc1ccc(Cl)cc1Cl)[C@@H]1CCC(=O)N1c1ccccc1"
Ans: Unstable

Q: Can you share its Stability? I mean this compound: "O=C(NCc1ccc(Cl)cc1Cl)[C@@H]1CCC(=O)N1c1ccco1"
Ans: Unstable

Q: So what's the measured Stability for this one? "CN1C(=O)CC[C@H]1C(=O)NCc1ccc(Cl)cc1Cl"
Ans: Stable

Q: Requested read-out: Stability. Entry: "CN1C(=O)CC[C@H]1C(=O)NCc1cccc(C(F)(F)F)c1Cl"
Ans: Stable

Q: Recorded Stability for "O=C(NCc1ccc(Cl)cc1Cl)[C@@H]1CCC(=O)N1c1cscn1" , please?
Ans: Unstable

###

- Test system: SF-295
- test.summary: Cytotoxicity against human SF295 cells assessed as effect on cell growth at 10 uM incubated for 48 hrs by sulforhodamine B assay
- Format: cell-based
- recorded.conditions: sf-295, 48 h
observed.property: Activity

- O=C(NCc1ccc(Cl)cc1Cl)[C@@H]1CCC(=O)N1c1ccc(Cl)cc1: Non-Toxic
- O=C(NCc1ccc(Cl)cc1Cl)[C@@H]1CCC(=O)N1c1ccccc1: Non-Toxic
- O=C(NCc1ccc(Cl)cc1Cl)[C@@H]1CCC(=O)N1c1ccsc1: Non-Toxic

###

- Tested on: MDA-MB-468
- test.summary: Cytotoxicity against human MDA-MB-468 cells assessed as effect on cell growth at 10 uM incubated for 48 hrs by sulforhodamine B assay
- Type: cell-based
- recorded.conditions: mda-mb-468, 48 h
observed.property: Activity

Some solved cases for reference:
• COc1ccccc1CN1C(=O)[C@@H]2C/C(=C\N(C)C)C(=O)N2C1N(C)C (stereo not given in full) = Non-Toxic
• CCCCCCN1C(=O)[C@@H]2C/C(=C\N(C)C)C(=O)N2C1N(C)C (stereo not given in full) = Non-Toxic
• O=C(NCc1ccc(Cl)cc1Cl)[C@@H]1CCC(=O)N1Cc1ccccc1 = Non-Toxic
• O=C1CCCC(C(=O)NCc2ccc(Cl)cc2Cl)N1 (stereo not given) = Non-Toxic
• O=C(NCc1ccccc1Cl)[C@@H]1CCC(=O)N1Cc1ccccc1Cl = Non-Toxic

Q: May I ask what Activity has been recorded for "COc1ccc(N2C(=O)CC[C@H]2C(=O)NCc2ccc(Cl)cc2Cl)cc1" ?
Ans: Non-Toxic

Q: Need Activity of "O=C(NCc1ccc(Cl)cc1Cl)[C@@H]1CCC(=O)N1c1cscn1" , thanks.
Ans: Non-Toxic

Q: Look at this molecule and give its reported Activity. CN(C)/C=C1\C[C@H]2C(=O)N(Cc3ccccc3Cl)C(N(C)C)N2C1=O (stereo not given in full)
Ans: Non-Toxic

Q: Requested read-out: Activity. Entry: "O=C(NCc1ccc(Cl)cc1Cl)[C@@H]1CCC(=O)N1c1ccc(Cl)cc1"
Ans: Non-Toxic

Q: So what's the measured Activity for this one? O=C1N[C@H](C(=O)NCc2ccc(Cl)cc2Cl)C/C1=N\O (stereo in doubt)
Ans: Non-Toxic

###

- Tested on: MDA-MB-435
- test.summary: Cytotoxicity against human MDA-MB-435 cells assessed as effect on cell growth at 10 uM incubated for 48 hrs by sulforhodamine B assay
- Format: cell-based
- recorded.conditions: mda-mb-435, 48 h
observed.property: Activity

• O=C(NCc1ccc(Cl)cc1Cl)[C@@H]1COC(=O)N1c1cccs1 = Non-Toxic
• O=C1CCCC(C(=O)NCc2ccc(Cl)cc2Cl)N1 (stereo not drawn) = Non-Toxic
• COC(=O)[C@@H]1C/C(=C\NCc2ccc(Cl)cc2Cl)C(=O)N1C(=O)OC = Non-Toxic
• O=C(NCc1ccc(Cl)cc1Cl)c1ccccn1 = Non-Toxic
• O=C(Nc1ccc(Cl)cc1Cl)[C@@H]1CCC(=O)N1Cc1ccccc1Cl = Non-Toxic

Q: API: value(readout=Activity, system=MDA-MB-435) for record CCCCCCN1C(=O)[C@@H]2C/C(=C\N(C)C)C(=O)N2C1N(C)C (stereo partly drawn)
Ans: Non-Toxic

Q: Query Activity on MDA-MB-435 for "COc1ccc(N2C(=O)CC[C@H]2C(=O)NCc2ccc(Cl)cc2Cl)cc1"
Ans: Non-Toxic

Q: # returns recorded Activity (system: MDA-MB-435) for "CN1CCN(/C=C2\C[C@@H](C(=O)NCc3ccc(Cl)cc3Cl)N(c3cccs3)C2=O)CC1"
Ans: Non-Toxic

Q: Give MDA-MB-435 Activity for "Cc1ccc(NC(=O)[C@@H]2CCC(=O)N2c2ccccc2)cc1"
Ans: Non-Toxic

###

- System: CAKI-1
- test.summary: Growth inhibition of human Caki1 cells assessed as growth percentage at 10 uM incubated for 48 hrs by sulforhodamine B assay
- Format: cell-based
- recorded.conditions: caki-1, 48 h
observed.property: Activity

- CN1C(=O)C(C)(C)C[C@H]1C(=O)NCc1cccc(C(F)(F)F)c1Cl: Non-Toxic
- N#Cc1ccc(N2C(=O)CC[C@H]2C(=O)NCc2ccc(Cl)cc2Cl)cc1: Non-Toxic
- C[n+]1ccccc1C(=O)NCc1ccc(Cl)cc1Cl.[I-]: Non-Toxic

###

- System: CAKI-1
- test.summary: Growth inhibition of human Caki1 cells assessed as growth percentage at 10 uM incubated for 48 hrs by sulforhodamine B assay
- Assay type: cell-based
- recorded.conditions: caki-1, 48 h
observed.property: Activity

Record excerpt, results attached:
- O=C(NCc1ccc(Cl)cc1Cl)[C@@H]1CCC(=O)N1Cc1ccccc1: Non-Toxic
- CN(C)/C=C1\C[C@@H](C(=O)NCc2ccc(Cl)cc2Cl)N(c2cccs2)C1=O: Non-Toxic
- O=C1N[C@H](C(=O)NCc2ccc(Cl)cc2Cl)C/C1=C\N1CCOCC1: Non-Toxic
- COC(=O)[C@@H]1C/C(=C\NCc2ccc(Cl)cc2Cl)C(=O)N1C(=O)OC: Non-Toxic

# evaluate next
Q: Can you look up the measured Activity of "O=C(NCc1ccccc1Cl)[C@@H]1CCC(=O)N1Cc1ccccc1" for me?
Ans: Non-Toxic

###

- target.or.system: UniProtKB Q99572
- Sequence (Q99572 whole entry): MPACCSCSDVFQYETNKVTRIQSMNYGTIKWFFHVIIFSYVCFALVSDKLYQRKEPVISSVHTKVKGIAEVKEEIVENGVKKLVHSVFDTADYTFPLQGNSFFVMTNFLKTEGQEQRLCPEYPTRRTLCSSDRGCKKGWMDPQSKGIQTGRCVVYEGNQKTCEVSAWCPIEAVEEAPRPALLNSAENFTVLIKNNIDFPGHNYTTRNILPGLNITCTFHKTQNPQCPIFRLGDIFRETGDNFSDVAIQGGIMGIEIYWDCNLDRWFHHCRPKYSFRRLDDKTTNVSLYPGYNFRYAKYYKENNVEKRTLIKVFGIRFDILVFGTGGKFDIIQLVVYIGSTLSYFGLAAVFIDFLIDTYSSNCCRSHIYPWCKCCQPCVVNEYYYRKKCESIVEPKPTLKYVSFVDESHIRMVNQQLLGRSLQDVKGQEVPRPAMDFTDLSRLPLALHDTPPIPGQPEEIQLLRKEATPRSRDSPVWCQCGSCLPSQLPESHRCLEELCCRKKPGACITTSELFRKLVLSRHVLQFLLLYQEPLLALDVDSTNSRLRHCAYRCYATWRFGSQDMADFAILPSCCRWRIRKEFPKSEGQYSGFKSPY
- test.summary: Inhibition of human P2X7 expressed in human HEK293 cells assessed as reduction in BzATP-stimulated TO-PRO-3 incorporation at 10 uM preincubated with compound and TO-PRO-3 for 15 mins prior to BzATP addition and measured after 1 hr by Fluo-3AM dye based flow cytometry relative to control
- Assay type: cell-based
Activity calls are given as the source filed them. How the calls were made is not given here.
observed.property: inhibition

Record excerpt, results attached:
• O=C1N[C@H](C(=O)NCc2ccc(Cl)cc2Cl)C/C1=N\O (stereo in doubt) = 52%
• CN(C)/C=C1\C[C@@H](C(=O)NCc2ccc(Cl)cc2Cl)NC1=O = 53%
• O=C(NCc1ccc(Cl)cc1Cl)[C@@H]1CCC(=O)N1c1ccoc1 = 85%
• COc1ccc(CNC(=O)[C@@H]2CCC(=O)N2)c(OC)c1 = inactive
• COC(=O)[C@@H]1CCC(=O)N1Cc1ccc(Br)cc1 = inactive

// next entry
Q: Form field: inhibition recorded for "NC(=O)[C@@H]1CCC(=O)N1" with UniProtKB Q99572 (enter value)
Ans: inactive

###

- System: RPMI-8226
- test.summary: Cytotoxicity against human RPMI8226 cells assessed as effect on cell growth at 10 uM incubated for 48 hrs by sulforhodamine B assay
- Type: cell-based
- recorded.conditions: rpmi-8226, 48 h
observed.property: Activity

Example results:
* N#Cc1ccc(N2C(=O)CC[C@H]2C(=O)NCc2ccc(Cl)cc2Cl)cc1 | Non-Toxic
* COc1ccccc1CN1C(=O)[C@@H]2C/C(=C\N(C)C)C(=O)N2C1N(C)C (stereo not given in full) | Non-Toxic
* O=C(NCc1ccc(Cl)cc1Cl)[C@@H]1CCC(=O)N1Cc1ccc(Cl)cc1 | Non-Toxic
* COc1ccc(N2C(=O)[C@@H]3C/C(=C\N(C)C)C(=O)N3C2N(C)C)cc1 (stereo not given in full) | Non-Toxic

Q: Quick check: Activity of "COc1ccc(NC(=O)[C@@H]2CCC(=O)N2)cc1OC" ?
Ans: Non-Toxic

Q: Can you look up the measured Activity of "O=C(NCc1ccc(Cl)cc1Cl)[C@@H]1CCC(=O)N1c1ccc(Cl)cc1Cl" for me?
Ans: Non-Toxic
